meta.source: patent US20070197522A1

Target: DPP-IV (Homo sapiens)
Construct: Soluble human DPP-IV lacking the transmembrane anchor (Gly31-Pro766) was expressed in a recombinant YEAST-strain; Pre-Pro-alpha-mating factor leader (secretion fusion) (N, cleaved yes); made in house
Sequence (P27487 31-766): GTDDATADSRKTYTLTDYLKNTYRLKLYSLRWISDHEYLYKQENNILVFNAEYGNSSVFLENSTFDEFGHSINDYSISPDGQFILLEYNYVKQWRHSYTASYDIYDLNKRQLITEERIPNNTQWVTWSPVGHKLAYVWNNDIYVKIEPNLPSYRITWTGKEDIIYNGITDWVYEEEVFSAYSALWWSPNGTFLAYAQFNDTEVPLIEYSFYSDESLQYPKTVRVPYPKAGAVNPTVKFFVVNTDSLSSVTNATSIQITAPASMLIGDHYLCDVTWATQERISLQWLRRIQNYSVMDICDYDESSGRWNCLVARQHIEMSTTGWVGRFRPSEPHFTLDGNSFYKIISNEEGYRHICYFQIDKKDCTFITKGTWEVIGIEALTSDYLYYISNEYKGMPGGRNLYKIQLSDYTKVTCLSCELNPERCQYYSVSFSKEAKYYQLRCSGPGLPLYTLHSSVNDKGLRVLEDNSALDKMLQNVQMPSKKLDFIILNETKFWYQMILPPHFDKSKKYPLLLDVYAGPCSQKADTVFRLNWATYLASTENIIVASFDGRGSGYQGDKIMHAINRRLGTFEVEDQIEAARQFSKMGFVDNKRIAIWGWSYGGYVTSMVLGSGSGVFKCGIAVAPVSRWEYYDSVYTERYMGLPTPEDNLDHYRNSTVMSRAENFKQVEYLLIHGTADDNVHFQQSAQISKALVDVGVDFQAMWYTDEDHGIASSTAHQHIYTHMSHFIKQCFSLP
Test: Inhibition of DPP-IV peptidase activity, continuous fluorimetric assay (Gly-Pro-AMC cleavage)
Assay type: biochemical, human and porcine
Conditions: IC50
pIC50: −log10 of the molar value.
readout_label: pIC50

• N[C@@H](CC(=O)NCc1n[nH]c2ccc(Cl)cc12)Cc1ccccc1F = 6.00 to 7.00

* * *

Each entry below carries its recorded IC50.
Biological target: DPP-IV (Homo sapiens)
Construct: Soluble human DPP-IV lacking the transmembrane anchor (Gly31-Pro766) was expressed in a recombinant YEAST-strain; Pre-Pro-alpha-mating factor leader (secretion fusion) (N, cleaved yes); made in house
Assay: Inhibition of DPP-IV peptidase activity, continuous fluorimetric assay (Gly-Pro-AMC cleavage)
Type: biochemical, human and porcine
Settings: inhibition of DPP-IV peptidase activity; 50 pM DPP-IV, 16 μM Gly-Pro-AMC, pH 7.4, 25° C.; values grouped in 3 classes; read-out: IC50
Counter-ions that a name gives are not always drawn.
readout_label: IC50

* NC(CC(=O)NC1CCCc2ccccc21)Cc1ccccc1F (centres unmarked) | 0.101 to 1 µM
* CN(CC(c1ccccc1)N1CCOCC1)C(=O)C[C@H](N)Cc1ccccc1F (some centres unmarked) | < 0.1 µM
* CC(NC(=O)C[C@H](N)Cc1ccccc1F)c1ccc(-n2ccnc2)cc1 (some centres unmarked) | 0.101 to 1 µM
* N[C@@H](CC(=O)NCc1cccc2cnccc12)Cc1ccccc1F | 1 to 2 µM
* CC(C)[C@H](NC(=O)C[C@H](N)Cc1cc(F)c(F)cc1F)c1nc(C2CC2)no1 [Example 29, Formic Acid Salt] | < 0.1 µM
* N[C@@H](CC(=O)NCCc1ccccc1F)Cc1ccccc1F | 0.101 to 1 µM
* N[C@@H](CC(=O)NCC(c1cccc(Cl)c1)N1CCOCC1)Cc1ccccc1F (some centres unmarked) | 0.101 to 1 µM
* N[C@@H](CC(=O)NCc1ccc(Cl)cc1Cl)Cc1ccccc1F | 0.101 to 1 µM
* CN1CCN(CC(NC(=O)C[C@H](N)Cc2ccccc2F)c2ccccc2)CC1 (some centres unmarked) | 0.101 to 1 µM
* N[C@@H](CC(=O)NC(CN1CCCC1)c1ccccc1)Cc1ccccc1F (single isomer, unassigned) [Example 87] | < 0.1 µM
* C[C@@H](CNC(=O)C[C@H](N)Cc1ccccc1F)c1ccccc1 | 0.101 to 1 µM
* N[C@@H](CC(=O)NC(CN1CCCC1)c1ccccc1)Cc1ccccc1F (single isomer, unassigned) [Example 91] | 0.101 to 1 µM
* CN(C)C(CNC(=O)C[C@H](N)Cc1ccccc1F)c1ccccc1Cl (single isomer, unassigned) | 0.101 to 1 µM
* NC(CC(=O)NCC(c1ccccc1Cl)N1CCCC1)Cc1ccccc1F (single isomer, unassigned) | < 0.1 µM
* N[C@@H](CC(=O)NCc1ccccc1)Cc1ccccc1F | 1 to 2 µM
* NC(CC(=O)N(Cc1ccccc1F)C1CC1)Cc1ccccc1F (centres unmarked) | 0.101 to 1 µM
* N[C@@H](CC(=O)NCc1cc(F)c(F)c(F)c1)Cc1ccccc1F | 0.101 to 1 µM
* COc1ccc(Oc2cccc(F)c2CNC(=O)C[C@H](N)Cc2ccccc2F)cc1 | 0.101 to 1 µM
* CC(CNC(=O)C[C@H](N)Cc1ccccc1F)c1ccc(Cl)cc1 (single isomer, unassigned) | 0.101 to 1 µM
* N[C@@H](CC(=O)NCc1cccc(C(=O)NCc2ccccc2F)c1)Cc1ccccc1F | 0.101 to 1 µM
* N[C@@H](CC(=O)NCc1ccccc1-c1ccccc1)Cc1ccccc1F | 0.101 to 1 µM
* NC(CC(=O)NCC(c1ccc(Cl)cc1)N1CCOCC1)Cc1ccccc1F (centres unmarked) | 0.101 to 1 µM
* N[C@@H](CC(=O)NCCc1ccc(Cl)c(Cl)c1)Cc1ccccc1F | 0.101 to 1 µM
* CS(=O)(=O)c1ccc(CNC(=O)C[C@H](N)Cc2ccccc2F)cc1 | 0.101 to 1 µM
* Cc1ccc(C(C)NC(=O)CC(N)Cc2ccccc2F)cc1 (centres unmarked) | 0.101 to 1 µM
* CN(Cc1cn2ccccc2n1)C(=O)C[C@H](N)Cc1ccccc1F | 1 to 2 µM
* N[C@@H](CC(=O)NCc1cccnc1)Cc1ccccc1F | 0.101 to 1 µM
* N[C@@H](CC(=O)N[C@@H](CN1CCCCC1)c1ccccc1)Cc1ccccc1F | 0.101 to 1 µM
* N[C@@H](CC(=O)NCc1cc(-c2ccc(Cl)cc2)no1)Cc1ccccc1F | 0.101 to 1 µM
* N[C@@H](CC(=O)NCc1cc(F)cc(F)c1)Cc1ccccc1F | 0.101 to 1 µM
* CN(Cc1cccc(C(F)(F)F)c1)S(=O)(=O)C[C@H](N)Cc1ccccc1F | 0.101 to 1 µM
* N[C@@H](CC(=O)NCCN1CCCCC1)Cc1ccccc1F | 0.101 to 1 µM
* NC(CC(=O)NCCc1cccc(F)c1)Cc1ccccc1F (centres unmarked) | 1 to 2 µM
* N[C@@H](CC(=O)NC(c1ccccc1)c1ccccc1)Cc1ccccc1F | 0.101 to 1 µM
* N[C@@H](CC(=O)NCCc1ccccc1)Cc1ccccc1F | 0.101 to 1 µM

* * *

Molecular target: DPP-IV (Homo sapiens)
Construct: Soluble human DPP-IV lacking the transmembrane anchor (Gly31-Pro766) was expressed in a recombinant YEAST-strain; Pre-Pro-alpha-mating factor leader (secretion fusion) (N, cleaved yes); made in house
Assay: Inhibition of DPP-IV peptidase activity, continuous fluorimetric assay (Gly-Pro-AMC cleavage)
Type: biochemical, human and porcine
Conditions: inhibition of DPP-IV peptidase activity; 50 pM DPP-IV, 16 μM Gly-Pro-AMC, pH 7.4, 25° C.; values grouped in 3 classes; read-out: IC50
pIC50: −log10 of the molar value.
readout_label: pIC50

• N[C@@H](CC(=O)NCc1ccncc1)Cc1ccccc1F = 6.00 to 7.00
• N[C@@H](CC(=O)NCc1ccc(-n2cccn2)cc1)Cc1ccccc1F = > 7.00
• N[C@@H](CC(=O)NCCc1ccc(F)cc1)Cc1ccccc1F = 5.70 to 6.00
• N[C@@H](CC(=O)NCCc1cccnc1)Cc1ccccc1F = 6.00 to 7.00
• N[C@@H](CC(=O)NCc1cccc(Oc2ccccc2)c1)Cc1ccccc1F = 6.00 to 7.00
• CN(CC(c1ccccc1Cl)N1CCCC1)C(=O)C[C@H](N)Cc1ccccc1F (stereo partly shown) = > 7.00
• NC(CC(=O)NCc1ccc(Oc2ccccc2)cc1)Cc1ccccc1F (stereo not shown) = 6.00 to 7.00
• N[C@@H](CC(=O)NCc1cccc(C(=O)Nc2ccccn2)c1)Cc1ccccc1F = 6.00 to 7.00
• CN(Cc1ccccc1)C(=O)C[C@H](N)Cc1ccccc1F = 6.00 to 7.00
• COc1ccccc1CCNC(=O)C[C@H](N)Cc1ccccc1F = 5.70 to 6.00
• N#Cc1ccc(CNC(=O)C[C@H](N)Cc2ccccc2F)cc1 = 6.00 to 7.00
• COc1ccc(CN(C)C(=O)C[C@H](N)Cc2ccccc2F)cc1 = 6.00 to 7.00
• N[C@@H](CC(=O)NCc1ccccc1N1CCCCC1)Cc1ccccc1F = 6.00 to 7.00
• Cc1onc(-c2ccccc2)c1CNC(=O)C[C@H](N)Cc1ccccc1F = 6.00 to 7.00
• C[C@H](CNC(=O)C[C@H](N)Cc1ccccc1F)c1ccccc1 = 5.70 to 6.00
• N[C@@H](CC(=O)NCCNC(=O)c1ccccn1)Cc1ccccc1F = 6.00 to 7.00
• N[C@@H](CC(=O)NCc1ccccc1C(F)(F)F)Cc1ccccc1F = 5.70 to 6.00
• N[C@@H](CC(=O)NCc1ccccn1)Cc1ccccc1F = 6.00 to 7.00
• N[C@@H](CC(=O)NCc1cccc(-n2cccn2)c1)Cc1ccccc1F = 6.00 to 7.00
• N[C@@H](CC(=O)NCC(c1ccccc1Cl)N1CCOCC1)Cc1ccccc1F (stereo partly shown) = 6.00 to 7.00
• NC(CC(=O)NCC(c1ccccc1)N1CCOCC1)Cc1ccccc1F (stereo not shown) = 6.00 to 7.00
• Cc1ccc(CNC(=O)C[C@H](N)Cc2ccccc2F)cc1 = 6.00 to 7.00
• N[C@@H](CC(=O)NC(CN1CCCCC1)c1ccccc1)Cc1ccccc1F (single isomer, unassigned) = 6.00 to 7.00
• N[C@@H](CC(=O)NCc1c(Cl)cccc1Oc1ccccc1)Cc1ccccc1F = 6.00 to 7.00
• N[C@@H](CC(=O)NCc1cc(Cl)ccc1-n1cncn1)Cc1ccccc1F = 6.00 to 7.00
• COc1ccc([C@@H](C)NC(=O)C[C@H](N)Cc2ccccc2F)cc1 = 5.70 to 6.00
• N[C@@H](CC(=O)NCc1cnn(-c2ccccc2)c1)Cc1ccccc1F = 6.00 to 7.00
• N[C@@H](CC(=O)NCc1ccc(S(N)(=O)=O)cc1)Cc1ccccc1F = 6.00 to 7.00
• N[C@@H](CC(=O)NCc1ccc(Cl)cc1)Cc1ccccc1F = 6.00 to 7.00
• N[C@@H](CC(=O)NCC(c1ccccc1Cl)N1CCCC1)Cc1ccccc1F (single isomer, unassigned) = 6.00 to 7.00
• Cc1cc(CNC(=O)C[C@H](N)Cc2ccccc2F)no1 = 6.00 to 7.00
• NC(CC(=O)NC(CN1CCCC1)c1ccccc1)Cc1ccccc1F (single isomer, unassigned) = > 7.00
• CC(C)c1ccc(CNC(=O)C[C@H](N)Cc2ccccc2F)cc1 = 6.00 to 7.00
• CN(Cc1cccnc1)C(=O)C[C@H](N)Cc1ccccc1F = 6.00 to 7.00
• N[C@H](Cc1ccccc1F)CS(=O)(=O)NCc1cccc(C(F)(F)F)c1 = 6.00 to 7.00
• NC(=O)c1ccc(CNC(=O)C[C@H](N)Cc2ccccc2F)cc1 = 6.00 to 7.00
• N[C@H](Cc1ccccc1F)CS(=O)(=O)NCc1ccc(C(F)(F)F)nc1 = 6.00 to 7.00
